# assayed.target: bovine vesicular acetylcholine transporter (VAChT) (Bos taurus, UniProt E1BK36)
# Sequence (E1BK36 1-524): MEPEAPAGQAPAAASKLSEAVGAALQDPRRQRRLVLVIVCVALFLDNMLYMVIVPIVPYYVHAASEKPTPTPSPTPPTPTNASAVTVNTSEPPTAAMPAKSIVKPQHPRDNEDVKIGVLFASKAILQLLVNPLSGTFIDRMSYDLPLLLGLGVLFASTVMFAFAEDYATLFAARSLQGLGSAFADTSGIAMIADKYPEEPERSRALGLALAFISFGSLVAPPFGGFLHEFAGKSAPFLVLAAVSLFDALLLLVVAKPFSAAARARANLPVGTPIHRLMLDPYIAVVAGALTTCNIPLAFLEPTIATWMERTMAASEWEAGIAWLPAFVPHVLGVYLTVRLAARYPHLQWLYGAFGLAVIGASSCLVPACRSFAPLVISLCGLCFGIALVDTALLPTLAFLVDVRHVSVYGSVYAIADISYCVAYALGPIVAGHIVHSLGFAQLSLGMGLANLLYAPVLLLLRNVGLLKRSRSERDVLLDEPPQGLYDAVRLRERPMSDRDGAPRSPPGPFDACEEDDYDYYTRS
# experiment: Radioligand Binding Assay
# condition.set: Bovine binding Ki, CHO-K1 membranes with recombinant bovine VAChT, [3H]Compound X6 0.3 nM
readout.kind: Ki (nM)

structure_string=O=C(NCc1ccnc(Cl)c1)N1CC2(CCN(C/C=C/c3ccc(Cl)cc3)CC2)c2cc(OC(F)(F)F)c(Cl)cc21 readout_kind=Ki recorded_number=297
structure_string=CC1(C)Oc2cc3c(cc2O1)C1(CCN(C/C=C/c2ccc(Cl)c(Cl)c2)CC1)CN3C(=O)NCc1ccnc(Cl)c1 readout_kind=Ki recorded_number=516
structure_string=O=C(NCc1ccc([N+](=O)[O-])cc1)N1CC2(CCN(C/C=C/c3ccc(Cl)c(Cl)c3)CC2)c2c1ccc1scnc21 readout_kind=Ki recorded_number=11600
structure_string=O=C(NCc1cnc(Cl)s1)N1CC2(CCN(C/C=C/c3ccc(Cl)c(Cl)c3)CC2)c2c1ccc1scnc21 readout_kind=Ki recorded_number=105

Attribution: patent US20160296499A1
